ASSAY_SUMMARY: Cytotoxicity test (MTT), HT-29
Assay type: cell-based
TEST_CONDITIONS: human, HT-29 cells (colorectal cancer cell line); HT-29, 48 h, 0.1 μM; read-out: Cell viability (% of control)
Here the recorded viability at 48 h, 0.1 µM is given for each entry.
Record the value in %, omitting the unit from your answer.

A selection of reference data follows.
COMPOUND | viability at 48 h, 0.1 µM (%)
Cc1nc(NC(=S)NC(=O)c2ccccc2)c(C)c(C)c1O | 75.4
Cc1nc(NS(=O)(=O)c2cccc3ccccc23)c(C)c(C)c1O | 86.7
Cc1nc(NC(=S)Nc2ccccc2)c(C)c(C)c1O | 97
COCCOC(=O)Nc1nc(C)c(O)c(C)c1C | 83.2

Let's switch to this compound now.
Entry Cc1nc(NC(=O)OCCCl)c(C)c(C)c1O : reported viability at 48 h, 0.1 µM = ? 94.7

* * *

ASSAY_SUMMARY: Cytotoxicity test (MTT), HT-29
Assay type: cell-based
TEST_CONDITIONS: human, HT-29 cells (colorectal cancer cell line); HT-29, 48 h, 10 μM; read-out: Cell viability (% of control)
REPORTED_ENDPOINT: viability at 48 h, 10 µM
// unit must come after the numeric part

COMPOUND | OBS_VALUE
Cc1nc(NC(=S)NC2CCCCC2)c(C)c(C)c1O [Compound 18-3] | 67%

Could you tell me which viability at 48 h, 10 µM is on file for Cc1nc(NC(=S)NC(C)C)c(C)c(C)c1O [Compound 18-2] ? 87.6%

Try this compound next: Cc1nc(NC(=O)Nc2cccc3ccccc23)c(C)c(C)c1O [Compound 16-5] 73.4%

* * *

ASSAY_SUMMARY: Cytotoxicity test (MTT), HT-29
Type: cell-based
TEST_CONDITIONS: human, HT-29 cells (colorectal cancer cell line); HT-29, 48 h, 0.01 μM; read-out: Cell viability (% of control)
REPORTED_ENDPOINT: viability at 48 h, 0.01 µM (%)
Form entry: value (%) — number only.

COMPOUND | OBS_VALUE
Cc1nc(NC(=S)Nc2ccccc2)c(C)c(C)c1O | 96.6
Cc1nc(NS(=O)(=O)c2cccc3ccccc23)c(C)c(C)c1O | 95.2
Cc1nc(NC(=O)NS(=O)(=O)c2ccccc2)c(C)c(C)c1O | 90
Cc1nc(NC(=O)OCC(C)C)c(C)c(C)c1O | 101
Cc1nc(NS(C)(=O)=O)c(C)c(C)c1O | 87.6
O=c1[nH]cc(F)c(=O)[nH]1 [5-Fluorouracil, reference compound] | 85.5
Cc1nc(NC(=S)NC(=O)c2ccccc2)c(C)c(C)c1O | 78.8
CCCCNC(=S)Nc1nc(C)c(O)c(C)c1C | 93.5
Cc1ccc(S(=O)(=O)Nc2nc(C)c(O)c(C)c2C)cc1 | 77.1
CCCCOC(=O)Nc1nc(C)c(O)c(C)c1C | 102

Tell me the measured viability at 48 h, 0.01 µM of Cc1nc(NC(=O)OCCCl)c(C)c(C)c1O , please. 97.4

Moving on to COC(=O)Nc1nc(C)c(O)c(C)c1C 89.7

Now the compound COc1cccc2c1C(=O)c1c(O)c3c(c(O)c1C2=O)C[C@@](O)(C(=O)CO)C[C@@H]3O[C@H]1C[C@H](N)[C@H](O)[C@H](C)O1 [Doxorubicin, reference compound] 69.9

What would you report for Cc1nc(NS(=O)(=O)c2ccc([N+](=O)[O-])cc2)c(C)c(C)c1O ? 96.6

Also Cc1nc(NC(=O)Nc2cccc3ccccc23)c(C)c(C)c1O ? 105

Same for COCCOC(=O)Nc1nc(C)c(O)c(C)c1C 89.7

Next record, please: Cc1nc(NS(=O)(=O)c2ccc(C(F)(F)F)cc2)c(C)c(C)c1O 92.5

Same question, CCCNC(=O)Nc1nc(C)c(O)c(C)c1C this time 94.9

Okay, and Cc1nc(NC(=O)Nc2ccccc2)c(C)c(C)c1O ? 103

* * *

ASSAY_SUMMARY: Cytotoxicity test (MTT), U937
Format: cell-based
TEST_CONDITIONS: human, U937 cells (monocytic blood cancer-derived cell line); U937, 48 h, 0.01 μM; read-out: Cell viability (% of control)
Here, each record is paired with measured viability at 48 h, 0.01 µM data.

Previously resolved entries follow.
COMPOUND | viability at 48 h, 0.01 µM
Cc1nc(NC(=S)NC(=O)c2ccccc2)c(C)c(C)c1O [Compound 18-13] | 99.9%
CCCNC(=O)Nc1nc(C)c(O)c(C)c1C [Compound 16-1] | 89.1%
Cc1nc(NS(C)(=O)=O)c(C)c(C)c1O [Compound 22-1] | 97.6%
Cc1nc(NS(=O)(=O)c2ccc(C(F)(F)F)cc2)c(C)c(C)c1O [Compound 22-3] | 96.9%
Cc1nc(NC(=O)NS(=O)(=O)c2ccccc2)c(C)c(C)c1O [Compound 16-6] | 91.6%
Cc1nc(NC(=O)Nc2cccc3ccccc23)c(C)c(C)c1O [Compound 16-5] | 88.1%
Cc1nc(NC(=O)OCC(C)C)c(C)c(C)c1O [Compound 20-3] | 86.3%
Cc1ccc(S(=O)(=O)Nc2nc(C)c(O)c(C)c2C)cc1 [Compound 22-2] | 96.6%

Fill in the blank: the reported viability at 48 h, 0.01 µM of Cc1nc(NC(=S)Nc2ccccc2)c(C)c(C)c1O [Compound 18-4] is ____. 99.5%

Cc1nc(NC(=S)NC(C)C)c(C)c(C)c1O [Compound 18-2] , same question. 97%

* * *

ASSAY_SUMMARY: Cytotoxicity test (MTT), HT-29
Type: cell-based
TEST_CONDITIONS: human, HT-29 cells (colorectal cancer cell line); HT-29, 48 h, 100 μM; read-out: Cell viability (% of control)
REPORTED_ENDPOINT: viability at 48 h, 100 µM (%)
Numeric only. Scale: %

See these solved cases before continuing.
COMPOUND | viability at 48 h, 100 µM [%]
Cc1nc(NC(=S)NC(C)C)c(C)c(C)c1O | 88.6
Cc1nc(NC(=O)OCCCl)c(C)c(C)c1O | 86.7
COc1cccc2c1C(=O)c1c(O)c3c(c(O)c1C2=O)C[C@@](O)(C(=O)CO)C[C@@H]3O[C@H]1C[C@H](N)[C@H](O)[C@H](C)O1 [Doxorubicin, reference compound] | 35.7

What measured viability at 48 h, 100 µM goes with Cc1nc(NC(=S)NC2CCCCC2)c(C)c(C)c1O ? 51.3

* * *

# IC50 at 48 h per record follows
ASSAY_SUMMARY: Cytotoxicity test (MTT), HT-29
Type: cell-based
TEST_CONDITIONS: human, HT-29 cells; HT-29, 48 h; read-out: IC50 (μM), cytotoxicity

COMPOUND | IC50 at 48 h
Cc1nc(NC(=O)Nc2ccccc2)c(C)c(C)c1O | > 100 µM
Cc1ccc(S(=O)(=O)Nc2nc(C)c(O)c(C)c2C)cc1 | > 100 µM
Cc1nc(NC(=O)OCCCl)c(C)c(C)c1O | > 100 µM
Cc1nc(NC(=O)Nc2ccc(Cl)cc2)c(C)c(C)c1O | > 100 µM
Cc1nc(NC(=O)NS(=O)(=O)c2ccccc2)c(C)c(C)c1O | > 100 µM
COC(=O)Nc1nc(C)c(O)c(C)c1C | > 100 µM

What value of IC50 at 48 h has been reported for the following compound? Cc1nc(NC(=S)NC(=O)c2ccccc2)c(C)c(C)c1O 19.1 µM

Same thing, different compound: Cc1nc(NC(=S)NC(C)C)c(C)c(C)c1O > 100 µM

Same question, Cc1nc(NC(=O)OCC(C)C)c(C)c(C)c1O this time > 100 µM

Continue with Cc1nc(NC(=O)Nc2cccc3ccccc23)c(C)c(C)c1O > 100 µM

// query: Cc1nc(NS(=O)(=O)c2cccc3ccccc23)c(C)c(C)c1O > 100 µM

Next: Cc1nc(NC(=S)Nc2ccc(Cl)cc2)c(C)c(C)c1O > 100 µM

Entry to check: Cc1nc(NC(=S)Nc2ccccc2)c(C)c(C)c1O > 100 µM

Also need Cc1nc(NS(=O)(=O)c2ccc(C(F)(F)F)cc2)c(C)c(C)c1O , thanks. > 100 µM

And what about the compound COc1cccc2c1C(=O)c1c(O)c3c(c(O)c1C2=O)C[C@@](O)(C(=O)CO)C[C@@H]3O[C@H]1C[C@H](N)[C@H](O)[C@H](C)O1 [Doxorubicin, reference compound] ? 12.9 µM

Also need O=c1[nH]cc(F)c(=O)[nH]1 [5-Fluorouracil, reference compound] , thanks. 7.6 µM

Cc1cccc(C(C)(C)C)c1NC(=O)Nc1nc(C)c(O)c(C)c1C , same question. 34.7 µM

One more compound: Cc1nc(NS(C)(=O)=O)c(C)c(C)c1O 50.1 µM
